Reference for the values: patent US5691311A

# Target or system: human α-thrombin (Homo sapiens, UniProt P00734)
# Construct: proteolysis of the B-chain of α-thrombin; human α-thrombin-catalyzed hydrolysis of Spectrozyme TH
# Assay name: Thrombin-catalyzed hydrolysis of Spectrozyme TH
# Format: biochemical
# Test context: Ki, method of Example 9, Spectrozyme TH
Give measured Ki for each item. Keep answers brief.

Structure notation	Target or system	Reported measurement
CC[C@H](C)[C@H](NC(=O)[C@H](CCC(=O)O)NC(=O)[C@H](CCC(=O)O)NC(=O)[C@H](Cc1ccccc1)NC(=O)[C@H](CC(=O)O)NC(=O)CNC(=O)[C@H](CC(N)=O)NC(=O)CNC(=O)CNC(=O)CNC(=O)CNC(=O)CNC[C@H](CCCNC(=N)N)NC(=O)[C@@H]1CCCN1C(=O)[C@H](N)Cc1ccccc1)C(=O)N1CCC[C@H]1C(=O)N[C@@H](CCC(=O)O)C(=O)N[C@@H](CCC(=O)O)C(=O)N[C@@H](Cc1ccc(O)cc1)C(=O)N[C@@H](CC(C)C)C(=O)O	human α-thrombin (Homo sapiens, UniProt P00734)	20 nM

Query block: Specify measured Ki for "CC[C@H](C)[C@H](NC(=O)[C@H](CCC(=O)O)NC(=O)[C@H](CCC(=O)O)NC(=O)[C@H](Cc1ccccc1)NC(=O)[C@H](CC(=O)O)NC(=O)CNC(=O)[C@H](CC(N)=O)NC(=O)CNC(=O)CNC(=O)CNC(=O)CNC(=O)CNC(=O)[C@H](CCCNC(=N)N)NC(=O)[C@@H]1CCCN1C(=O)[C@H](N)Cc1ccccc1)C(=O)N1CCC[C@H]1C(=O)N[C@@H](CCC(=O)O)C(=O)N[C@@H](CCC(=O)O)C(=O)N[C@@H](Cc1ccc(O)cc1)C(=O)N[C@@H](CC(C)C)C(=O)O" .
Result block: > 2000 nM
